The values you see were collected from patent US7151105B2.

- STUDY SYSTEM: Recombinant HCV polymerase (Hepatitis C virus genotype 1b)
- Construct: Recombinant HCV polymerase was tested for its ability to perform primer/template-directed transcription
- Sequence (P26663 2420-3010): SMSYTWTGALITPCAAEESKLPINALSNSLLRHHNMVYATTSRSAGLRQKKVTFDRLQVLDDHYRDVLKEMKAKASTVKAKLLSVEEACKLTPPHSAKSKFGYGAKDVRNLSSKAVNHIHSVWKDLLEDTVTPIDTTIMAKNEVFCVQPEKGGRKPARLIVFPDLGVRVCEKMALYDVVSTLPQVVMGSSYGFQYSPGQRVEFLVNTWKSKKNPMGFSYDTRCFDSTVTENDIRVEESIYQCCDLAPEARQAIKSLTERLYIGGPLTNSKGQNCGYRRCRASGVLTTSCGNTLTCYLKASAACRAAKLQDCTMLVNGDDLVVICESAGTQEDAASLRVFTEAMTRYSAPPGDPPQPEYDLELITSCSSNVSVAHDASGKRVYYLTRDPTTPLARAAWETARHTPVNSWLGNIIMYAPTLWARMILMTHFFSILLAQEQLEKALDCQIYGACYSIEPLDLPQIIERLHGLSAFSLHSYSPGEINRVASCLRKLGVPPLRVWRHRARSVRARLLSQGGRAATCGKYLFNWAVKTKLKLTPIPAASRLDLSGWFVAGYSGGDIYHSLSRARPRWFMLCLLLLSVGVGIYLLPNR
- METHOD SUMMARY: biochemical
- EXPERIMENTAL PARAMETERS: inhibition of polymerase-directed transcription; 30 min at 30° C; 30 nM enzyme; cpm data in triplicate
REPORTED PROPERTY: IC50 (µM)

[A] CCCOc1cnc(CC)cc1CCC1(C2CCCC2)CC(O)=C(Cc2nc3ncc(C)cn3n2)C(=O)O1 (centres unmarked)
[B] CCc1cc(CCC2(C3CCCC3)CC(O)=C(Cc3nc4nc(C)cc(C)n4n3)C(=O)O2)ccn1 (single isomer, unassigned) [A(45)]
[C] CS(=O)(=O)c1ccc(CCC2(C3CCCC3)CC(=O)CC(=O)O2)cc1Cl (centres unmarked)
IN: // smallest IC50 at index 0, largest at the end Form entry: labels listed in requested order.
OUT: A, B, C
(A: 0.006 µM, B: 0.014 µM, C: 48 µM)

[A] Cc1cc(C)n2nc(CC3=C(O)CC(CCc4ccc(O)c(CC(F)(F)F)c4)(C4CCCC4)OC3=O)nc2n1 (single isomer, unassigned) [A(75)]
[B] COc1cc(CO)c(F)cc1CCC1(C2CCCC2)CC(O)=C(Cc2nc3nc(C)cc(C)n3n2)C(=O)O1 (centres unmarked)
IN: Endpoint returns the identifier whose IC50 is numerically larger, either A or B . Kindly state the label of the option you pick.
OUT: B
(B: 0.022 µM, A: 0.005 µM)

[P] Cc1nn(C)c(C)c1CC1=C(O)CC(CCc2ccc(C(C)(C)C#N)c(F)c2)(C2CCCC2)OC1=O (centres unmarked)
[Q] CCc1ccnc(CCC2(C3CCCC3)CC(O)=C(Cc3nc4ncc(C)cn4n3)C(=O)O2)c1 (centres unmarked)
IN: Would you let me know which has the greater IC50 value, P or Q ? Answer by stating the label of the chosen item.
OUT: Q

[P] Cc1cc(C)n2nc(CC3=C(O)CC(CCc4ccc(C5(C#N)CC5)cc4)(C4CCCC4)OC3=O)nc2n1 (centres unmarked)
[Q] Cc1cc(C)n2nc(CC3=C(O)CC(CCc4ccc([C@@H](C)NS(C)(=O)=O)cc4)(C4CCCC4)OC3=O)nc2n1 (some centres unmarked)
IN: Which record would sort first by descending IC50, P or Q ? Indicate which entry you chose by stating its label.
OUT: Q

[a] O=C1CC(=O)OC(CCc2ccc(C(=O)O)c(Cl)c2)(C2CCCC2)C1 (centres unmarked)
[b] Cc1cnc2nc(CC3=C(O)CC(CCc4ccc(C(C)(C)C#N)c(C)c4)(C4CCCC4)OC3=O)nn2c1 (centres unmarked)
IN: Please state the entry with greater IC50 among a and b . Answer with the label corresponding to your selection.
OUT: a
(a: 30 µM, b: 0.012 µM)

[I] CC(=O)NCc1ccc(CCC2(C3CCCC3)CC(O)=C(Cc3nc4nc(C)cc(C)n4n3)C(=O)O2)cc1F (centres unmarked)
[II] Cc1cc(C)n2nc(CC3=C(O)CC(CCc4cc(C)c(O)c(CC(F)(F)F)c4)(C4CCCC4)OC3=O)nc2n1 (centres unmarked)
IN: From the recorded data, which exceeds the other in IC50: I or II ? // respond with label for picked entry
OUT: I
(I: 0.1 µM, II: 0.005 µM)

[P] CCc1cc(CCC2(C3CCCC3)CC(O)=C(Cc3nc4nc(C)cc(C)n4n3)C(=O)O2)ccc1CN(C)C (racemic)
[Q] CCOc1cnc(CC)cc1CCC1(C2CCCC2)CC(O)=C(Cc2nc3nc(C)cc(C)n3n2)C(=O)O1 (single isomer, unassigned) [A(52)]
IN: Of P and Q , which one carries the higher reported IC50? Lab note: record the label of whichever item you select.
OUT: P

[1] COc1cc(OC)c(CCC2(C3CCCC3)CC(O)=C(Cc3nc(-c4ccccn4)nn3C)C(=O)O2)cc1Cl (centres unmarked)
[2] CCOc1cnc(CC)cc1CCC1(C2CCCC2)CC(O)=C(Cc2nc3ncc(C)cn3n2)C(=O)O1 (single isomer, unassigned) [A(56)]
IN: Record comparison, field IC50: mark the lower of 1 and 2 . Refer to your chosen item by its label in the answer.
OUT: 2
(2: 0.004 µM, 1: 0.053 µM)
